FYI, the data here is from ChEMBL document CHEMBL5241052.

Biological target: Serine/threonine-protein kinase B-raf (Homo sapiens, UniProt P15056, V600E)
Sequence (P15056 2-766 V600E limits assumed): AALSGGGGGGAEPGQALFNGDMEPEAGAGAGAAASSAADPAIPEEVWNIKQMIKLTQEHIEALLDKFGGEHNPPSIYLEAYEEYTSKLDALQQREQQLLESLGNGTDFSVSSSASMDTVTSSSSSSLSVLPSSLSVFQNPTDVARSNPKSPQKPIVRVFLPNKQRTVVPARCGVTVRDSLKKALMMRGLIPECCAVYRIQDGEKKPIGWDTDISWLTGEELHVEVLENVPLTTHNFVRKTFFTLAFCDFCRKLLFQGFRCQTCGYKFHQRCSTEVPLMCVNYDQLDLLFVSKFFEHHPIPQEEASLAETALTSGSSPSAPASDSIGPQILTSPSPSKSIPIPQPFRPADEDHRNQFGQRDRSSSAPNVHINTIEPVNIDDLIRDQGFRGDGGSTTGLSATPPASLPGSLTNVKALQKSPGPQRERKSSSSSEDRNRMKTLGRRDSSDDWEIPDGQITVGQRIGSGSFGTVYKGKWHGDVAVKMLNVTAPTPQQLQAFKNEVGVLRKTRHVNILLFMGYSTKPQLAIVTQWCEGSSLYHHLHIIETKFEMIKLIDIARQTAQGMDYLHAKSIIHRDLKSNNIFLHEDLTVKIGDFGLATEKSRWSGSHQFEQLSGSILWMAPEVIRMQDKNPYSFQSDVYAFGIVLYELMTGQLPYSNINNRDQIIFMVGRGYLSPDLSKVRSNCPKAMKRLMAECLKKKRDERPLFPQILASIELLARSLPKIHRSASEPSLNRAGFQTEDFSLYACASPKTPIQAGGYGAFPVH
Assay: Inhibition of human BRAF V600E mutant
Measurement Name: IC50

*Q* Return value of IC50 for input CN(c1nc(-c2cnc(N)nc2)nc(N2CCOCC2)n1)C1CCN(C(=O)c2ccccc2)CC1 , no commentary.
*A* 118 nM

###

Molecular target: Epidermal growth factor receptor (Homo sapiens)
Sequence (P00533 whole entry): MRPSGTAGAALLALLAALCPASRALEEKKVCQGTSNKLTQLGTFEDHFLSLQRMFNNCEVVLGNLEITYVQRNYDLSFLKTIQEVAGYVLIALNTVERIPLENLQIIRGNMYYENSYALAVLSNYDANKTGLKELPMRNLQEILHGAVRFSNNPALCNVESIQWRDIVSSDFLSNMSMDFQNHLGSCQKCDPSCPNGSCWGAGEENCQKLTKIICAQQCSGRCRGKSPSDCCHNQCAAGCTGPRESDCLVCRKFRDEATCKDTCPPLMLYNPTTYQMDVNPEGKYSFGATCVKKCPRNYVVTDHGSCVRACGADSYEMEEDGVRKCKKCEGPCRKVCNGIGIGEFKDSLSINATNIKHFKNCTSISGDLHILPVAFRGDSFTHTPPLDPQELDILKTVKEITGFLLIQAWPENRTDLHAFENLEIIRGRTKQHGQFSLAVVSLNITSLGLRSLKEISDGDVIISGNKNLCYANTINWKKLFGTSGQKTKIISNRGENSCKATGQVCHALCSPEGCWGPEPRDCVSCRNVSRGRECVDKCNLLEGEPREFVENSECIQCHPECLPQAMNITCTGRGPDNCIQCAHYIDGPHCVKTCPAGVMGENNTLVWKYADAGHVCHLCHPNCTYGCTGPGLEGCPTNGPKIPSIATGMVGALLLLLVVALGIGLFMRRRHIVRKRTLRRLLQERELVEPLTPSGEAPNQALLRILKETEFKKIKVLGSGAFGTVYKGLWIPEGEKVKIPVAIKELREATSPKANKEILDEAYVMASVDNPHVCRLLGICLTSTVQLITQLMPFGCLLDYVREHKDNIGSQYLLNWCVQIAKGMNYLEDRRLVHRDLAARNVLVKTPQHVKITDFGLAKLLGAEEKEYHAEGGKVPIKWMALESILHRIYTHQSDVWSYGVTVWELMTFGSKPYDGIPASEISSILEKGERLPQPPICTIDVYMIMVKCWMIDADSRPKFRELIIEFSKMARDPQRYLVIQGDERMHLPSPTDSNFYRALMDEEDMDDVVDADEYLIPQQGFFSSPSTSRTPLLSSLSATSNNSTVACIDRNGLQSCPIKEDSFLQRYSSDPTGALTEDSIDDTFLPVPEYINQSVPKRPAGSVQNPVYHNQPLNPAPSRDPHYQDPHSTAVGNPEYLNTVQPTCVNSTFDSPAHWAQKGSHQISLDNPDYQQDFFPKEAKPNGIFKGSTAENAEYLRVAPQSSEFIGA
Assay: Inhibition of human EGFR
Measurement Name: IC50 (nM)
Numbers only, in nM.

*Q* Provide measured IC50 on Epidermal growth factor receptor (Homo sapiens) for CN(CCOC(=O)c1ccc(C(=O)Nc2ncnc3c2c(-c2ccc(Cl)cc2)nn3C(C)(C)C)nc1)Cc1ccc(C(=O)Nc2ccc3ncnc(Nc4cccc(Cl)c4)c3c2)cc1 please.
*A* 610

###

Target: Proto-oncogene tyrosine-protein kinase receptor Ret (Homo sapiens, UniProt P07949, V804M)
Sequence (P07949 29-1114 V804M limits assumed): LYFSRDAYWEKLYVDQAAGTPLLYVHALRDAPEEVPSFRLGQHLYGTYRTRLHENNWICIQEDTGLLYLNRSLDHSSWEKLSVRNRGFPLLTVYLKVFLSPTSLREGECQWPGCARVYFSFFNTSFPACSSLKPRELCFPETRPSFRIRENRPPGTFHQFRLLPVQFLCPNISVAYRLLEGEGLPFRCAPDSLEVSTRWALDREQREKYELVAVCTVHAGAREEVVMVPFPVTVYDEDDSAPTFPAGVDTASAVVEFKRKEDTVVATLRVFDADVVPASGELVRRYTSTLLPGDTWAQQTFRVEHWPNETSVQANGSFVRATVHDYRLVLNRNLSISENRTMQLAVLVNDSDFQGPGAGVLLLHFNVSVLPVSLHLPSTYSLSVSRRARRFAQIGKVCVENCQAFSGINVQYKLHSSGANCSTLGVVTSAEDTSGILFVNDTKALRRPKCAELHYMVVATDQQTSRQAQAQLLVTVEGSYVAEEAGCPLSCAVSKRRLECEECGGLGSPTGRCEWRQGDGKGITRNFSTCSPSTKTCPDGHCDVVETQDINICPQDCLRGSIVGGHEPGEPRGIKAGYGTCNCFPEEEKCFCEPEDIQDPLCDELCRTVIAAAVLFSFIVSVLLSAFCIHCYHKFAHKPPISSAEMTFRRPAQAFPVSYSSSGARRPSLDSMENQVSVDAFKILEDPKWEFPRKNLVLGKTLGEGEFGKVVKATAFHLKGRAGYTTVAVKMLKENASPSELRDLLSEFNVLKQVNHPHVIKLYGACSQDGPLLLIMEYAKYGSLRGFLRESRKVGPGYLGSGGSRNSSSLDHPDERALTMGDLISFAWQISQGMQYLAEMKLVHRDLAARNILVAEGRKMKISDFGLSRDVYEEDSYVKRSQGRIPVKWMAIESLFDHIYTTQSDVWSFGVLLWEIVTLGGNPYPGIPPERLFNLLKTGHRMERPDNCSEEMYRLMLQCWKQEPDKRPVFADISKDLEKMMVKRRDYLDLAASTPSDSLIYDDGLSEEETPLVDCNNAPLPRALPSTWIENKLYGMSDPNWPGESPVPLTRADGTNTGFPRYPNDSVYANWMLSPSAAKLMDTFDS
Assay: Inhibition of RET V804M mutant (unknown origin) by invitro kinase assay
Measurement Name: IC50

*Q* Return value of IC50 for input O=C(Cc1ccc(-n2cnc3cc(-c4ccsc4)ccc32)cc1)Nc1cccc(C(F)(F)F)c1 , no commentary.
*A* < 1 nM

###

System: MDA-MB-231
Assay: Antiproliferative activity against MDA-MB-231 cells (unknown origin)
Type: functional, cell-based
Details: Homo sapiens
Measurement Name: IC50
Form entry: enter the amount, then its unit.

*Q* Return value of IC50 for input CN(CCOC(=O)c1ccc(C(=O)Nc2ncnc3c2c(-c2ccc(Cl)cc2)nn3C(C)(C)C)nc1)Cc1ccc(C(=O)Nc2ccc3ncnc(Nc4cccc(Cl)c4)c3c2)cc1 , no commentary.
*A* 7.34 µM
